Tested System: glucokinase (GK) (Homo sapiens, UniProt P35557)
Construct: I.D. No. 1 corresponds to residues 12-465 of glucokinase
Sequence (P35557 with tags, fused parts or gaps isoform P35557-2): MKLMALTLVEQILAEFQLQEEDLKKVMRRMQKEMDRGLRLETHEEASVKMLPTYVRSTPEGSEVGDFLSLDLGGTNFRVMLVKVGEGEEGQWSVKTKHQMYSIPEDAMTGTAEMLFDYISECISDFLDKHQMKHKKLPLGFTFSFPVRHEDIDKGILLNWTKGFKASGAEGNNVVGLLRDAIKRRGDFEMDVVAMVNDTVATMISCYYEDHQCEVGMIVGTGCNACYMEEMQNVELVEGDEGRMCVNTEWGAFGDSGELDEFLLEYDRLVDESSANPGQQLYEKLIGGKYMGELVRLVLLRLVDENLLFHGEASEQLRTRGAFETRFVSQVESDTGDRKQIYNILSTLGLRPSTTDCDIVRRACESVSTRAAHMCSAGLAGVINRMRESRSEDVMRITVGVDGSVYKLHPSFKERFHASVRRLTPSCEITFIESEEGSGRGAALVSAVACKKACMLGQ
Experiment: enzymatic glucokinase activity assay (ATP consumption, KinaseGlo luminescence)
Condition Label: Against GK; Kact = concentration giving 50% of maximal increase in GK activity; 5 μM ATP, 5 mM Glucose, 60 min room temperature; values given as bins; read-out: pKact
Excerpt: The activity of compounds as glucokinase activators may be assayed in vitro, in vivo or in a cell line. Provided below is an enzymatic glucokinase activity assay. Purified glucokinase may be obtained as follows. […] Recombinant protein may be isolated from cellular extracts by passage over Sepharose Q Fast Flow resin (Pharmacia). […] The purity of GK may be determined on denaturing SDS-PAGE gel. […]
pEC50: −log10 of the molar value.
# pEC50 values compiled below
Readout Kind: pEC50

[
  {
    "Compound": "COc1ccc2ncn(C(CC3CCCCC3)C(=O)Nc3nccs3)c(=O)c2c1 (stereo not shown)",
    "Readout Kind": "pEC50",
    "Data Value": "≤ 5.70"
  },
  {
    "Compound": "CN(C)CCNC(=O)c1ccc2c(=O)n(C(CC3CCCCC3)C(=O)Nc3ncc(Cl)s3)cnc2c1 (stereo not shown)",
    "Readout Kind": "pEC50",
    "Data Value": "5.80 to 6.00"
  },
  {
    "Compound": "COC(=O)c1ccc(NC(=O)C(CC2CCCCC2)n2cnc3cc(F)ccc3c2=O)nc1 (stereo not shown)",
    "Readout Kind": "pEC50",
    "Data Value": "5.80 to 6.00"
  },
  {
    "Compound": "O=C(NC1CC1)c1ccc2c(=O)n(C(CC3CCCCC3)C(=O)Nc3ncc(Cl)s3)c(=O)[nH]c2c1 (stereo not shown)",
    "Readout Kind": "pEC50",
    "Data Value": "6.10 to 6.30"
  },
  {
    "Compound": "O=C(Nc1ccc(F)cn1)C(CC1CCCCC1)n1cnc2ccc(F)cc2c1=O (stereo not shown)",
    "Readout Kind": "pEC50",
    "Data Value": "≤ 5.70"
  },
  {
    "Compound": "O=C(Nc1ncc(F)s1)C(CC1CCCCC1)n1c(=O)[nH]c2ccc(F)cc2c1=O (stereo not shown)",
    "Readout Kind": "pEC50",
    "Data Value": "≤ 5.70"
  },
  {
    "Compound": "COc1ccc2ncn(C(CC3CCCCC3)C(=O)Nc3ccc(Cl)cn3)c(=O)c2c1 (stereo not shown)",
    "Readout Kind": "pEC50",
    "Data Value": "6.10 to 6.30"
  },
  {
    "Compound": "COC(=O)c1ccc(NC(=O)C(CC2CCCCC2)n2cnc3ccc(F)cc3c2=O)nc1 (stereo not shown)",
    "Readout Kind": "pEC50",
    "Data Value": "≤ 5.70"
  },
  {
    "Compound": "CS(=O)(=O)c1ccc2c(=O)n(C(CC3CCCCC3)C(=O)Nc3ncc(Cl)s3)cnc2c1 (stereo not shown)",
    "Readout Kind": "pEC50",
    "Data Value": "5.80 to 6.00"
  },
  {
    "Compound": "CS(=O)(=O)c1ccc2c(=O)n(C(CC3CCCCC3)C(=O)Nc3ccc(C(N)=O)cn3)cnc2c1 (stereo not shown)",
    "Readout Kind": "pEC50",
    "Data Value": "6.10 to 6.30"
  },
  {
    "Compound": "O=C(Nc1ccc2ccccc2n1)C(CC1CCCCC1)n1cnc2ccc(F)cc2c1=O (stereo not shown)",
    "Readout Kind": "pEC50",
    "Data Value": "6.10 to 6.30"
  },
  {
    "Compound": "O=C(NC1CC1)c1ccc2c(=O)n(C(CC3CCCCC3)C(=O)Nc3ccc(F)cn3)c(=O)[nH]c2c1 (stereo not shown)",
    "Readout Kind": "pEC50",
    "Data Value": "≤ 5.70"
  },
  {
    "Compound": "COC(=O)c1ccc(NC(=O)[C@H](CC2CCCCC2)n2cnc3c(C(F)(F)F)cccc3c2=O)nc1",
    "Readout Kind": "pEC50",
    "Data Value": "5.80 to 6.00"
  },
  {
    "Compound": "O=C(NC1CC1)c1ccc2c(=O)n(C(CC3CCCCC3)C(=O)Nc3ccc(F)cn3)cnc2c1 (stereo not shown)",
    "Readout Kind": "pEC50",
    "Data Value": "6.10 to 6.30"
  },
  {
    "Compound": "CS(=O)(=O)c1ccc2c(=O)n(C(CC3CCCCC3)C(=O)Nc3ccc(F)cn3)cnc2c1 (stereo not shown)",
    "Readout Kind": "pEC50",
    "Data Value": "≤ 5.70"
  },
  {
    "Compound": "O=C(Nc1ncc(Cl)s1)C(CC1CCCCC1)n1cnc2ccc(F)cc2c1=O (stereo not shown)",
    "Readout Kind": "pEC50",
    "Data Value": "≤ 5.70"
  },
  {
    "Compound": "Cc1cnc(NC(=O)C(CC2CCCCC2)n2cnc3cc(S(C)(=O)=O)ccc3c2=O)s1 (stereo not shown)",
    "Readout Kind": "pEC50",
    "Data Value": "≤ 5.70"
  },
  {
    "Compound": "O=C(NC1CCCC1)c1ccc2c(=O)n(C(CC3CCCCC3)C(=O)Nc3ncc(Cl)s3)cnc2c1 (stereo not shown)",
    "Readout Kind": "pEC50",
    "Data Value": "6.10 to 6.30"
  },
  {
    "Compound": "COC(=O)c1ccc(NC(=O)C(CC2CCCCC2)n2cnc3c(S(C)(=O)=O)csc3c2=O)nc1 (stereo not shown)",
    "Readout Kind": "pEC50",
    "Data Value": "5.80 to 6.00"
  },
  {
    "Compound": "CN1CCC(CNC(=O)c2ccc3c(=O)n(C(CC4CCCCC4)C(=O)Nc4ncc(Cl)s4)cnc3c2)CC1 (stereo not shown)",
    "Readout Kind": "pEC50",
    "Data Value": "5.80 to 6.00"
  },
  {
    "Compound": "CS(=O)(=O)c1ccc2ncn([C@@H](CC3CCCCC3)C(=O)Nc3ccc(C(N)=O)cn3)c(=O)c2c1",
    "Readout Kind": "pEC50",
    "Data Value": "6.10 to 6.30"
  },
  {
    "Compound": "CC(C)S(=O)(=O)c1csc2c(=O)n(C(CC3CCCCC3)C(=O)Nc3ccc(F)cn3)cnc12 (stereo not shown)",
    "Readout Kind": "pEC50",
    "Data Value": "5.80 to 6.00"
  },
  {
    "Compound": "O=C(Nc1ncc(Cl)s1)C(CC1CCCCC1)n1cnc2ccc(Cl)cc2c1=O (stereo not shown)",
    "Readout Kind": "pEC50",
    "Data Value": "5.80 to 6.00"
  },
  {
    "Compound": "CS(=O)(=O)c1cc(Cl)c2ncn(C(CC3CCCCC3)C(=O)Nc3ccc(C(N)=O)cn3)c(=O)c2c1 (stereo not shown)",
    "Readout Kind": "pEC50",
    "Data Value": "6.10 to 6.30"
  },
  {
    "Compound": "CS(=O)(=O)c1ccc2c(=O)n(C(CC3CCCCC3)C(=O)Nc3ccc(C(=O)O)cn3)c(=O)[nH]c2c1 (stereo not shown)",
    "Readout Kind": "pEC50",
    "Data Value": "≤ 5.70"
  },
  {
    "Compound": "O=C(Nc1ccc(F)cn1)C(CC1CCCCC1)n1cnc2cc(S(=O)(=O)C3CC3)ccc2c1=O (stereo not shown)",
    "Readout Kind": "pEC50",
    "Data Value": "5.80 to 6.00"
  },
  {
    "Compound": "CS(=O)(=O)c1ccc2c(=O)n(C(CC3CCCCC3)C(=O)Nc3ccc(C#N)cn3)cnc2c1 (stereo not shown)",
    "Readout Kind": "pEC50",
    "Data Value": "≤ 5.70"
  },
  {
    "Compound": "COC(=O)c1ccc(NC(=O)C(CC2CCCCC2)n2cnc3c(C(F)(F)F)cccc3c2=O)nc1 (stereo not shown)",
    "Readout Kind": "pEC50",
    "Data Value": "5.80 to 6.00"
  },
  {
    "Compound": "O=C(NC1CC1)c1ccc2c(=O)n(C(CC3CCOCC3)C(=O)Nc3ncc(Cl)s3)c(=O)[nH]c2c1 (stereo not shown)",
    "Readout Kind": "pEC50",
    "Data Value": "≤ 5.70"
  },
  {
    "Compound": "O=C(Nc1ncc(Cl)s1)C(CC1CCCCC1)n1cnc2c(C(F)(F)F)cccc2c1=O (stereo not shown)",
    "Readout Kind": "pEC50",
    "Data Value": "≤ 5.70"
  },
  {
    "Compound": "COC(=O)c1ccc(NC(=O)C(CC2CCCCC2)n2cnc3cc(S(=O)(=O)C4CCCC4)ccc3c2=O)nc1 (stereo not shown)",
    "Readout Kind": "pEC50",
    "Data Value": "≥ 6.40"
  }
]
